Test system: COLO 205
Assay: NCI tumour cell line growth inhibition, 48 h
Activity calls are given as the source filed them. Rule as the data show it: active = GI50 up to about 1.1 µM and inactive = higher.
parameterMeasured: GI50

Below: 2 molecules and their reported GI50.
[[record]]
molecule = "O=[N+]([O-])c1ccc(Cl)cc1C1ON=C(c2ccccc2)N1C12CC3CC(CC(C3)C1)C2 (centres undefined)"
testedsystem = "COLO 205"
endpointresult = "> 100 µM (inactive)"

[[record]]
molecule = "Brc1c2c(c(Br)c3nsnc13)N=S=N2"
testedsystem = "COLO 205"
endpointresult = "41.5 µM (inactive)"


Note down GI50 recorded for COC(=O)C1=C2SCc3cccc(c3)CSC3=C(C(=O)OC)SC(=C(S2)S1)S3 > 100 µM (inactive)

Please give measured GI50 of the following entry: COC(=O)/C=C1\C(=O)Nc2ccc(Br)cc21 1.67 µM (inactive)

Write down GI50 measured for item C=CCCCCNC(=O)C[C@@H]1C2=C(CC[C@H]1O[Si](C)(C)C(C)(C)C)N1C(=O)CCC/C=C\C1C2 (some centres undefined) 13.6 µM (inactive)

Given the molecule COc1ccc(C[C@H]2COC(=O)[C@@H]2Cc2cccc(Br)c2)cc1OC , write its reported GI50. 14 µM (inactive)

Answer with the recorded GI50 for the molecule listed here: COc1cc(C(=O)CC2OC(=O)C(Cl)=C2Cl)ccc1Cl (centres undefined) > 100 µM (inactive)

Look up and report measured GI50 for this entry: O=C(C1=C(C(=O)c2ccccc2)SC2(S1)C(C(=O)c1ccccc1)=C(C(=O)c1ccccc1)Sc1c2ssc1=O)c1ccccc1 > 100 µM (inactive)

Give the reported GI50 for this molecule. COc1ccc(C(=O)C(CC2C(=O)CC(C)(C)C(C(=O)C(=O)Nc3c(C)cccc3C)C2=O)c2ccc(OC)cc2)cc1 (centres undefined) > 100 µM (inactive)

Please report GI50 for the following molecule: Cc1nnc(-n2c(O)cc(=O)n(-c3ccccc3)c2=S)nc1/C=C/c1ccc(N(C)C)cc1 7.23 µM (inactive)

Return GI50 for the following molecule: Cc1nc2sc(C(=O)c3ccc(Cl)cc3)c(N)c2c(-c2ccccc2Cl)c1C(=O)Nc1ccccc1 18.3 µM (inactive)

Entry C=CC(Br)(CBr)CCC(Br)C(C)C (centres undefined) needs its GI50 filled in; supply it. 5.93 µM (inactive)

Please report GI50 for the following molecule: CCOC(=O)c1cc2c(C(=O)c3ccc([N+](=O)[O-])cc3)c(C(C)=O)ccc2[nH]1 > 100 µM (inactive)

Note GI50 for the molecule shown: Cc1cc(OC(=O)c2c(C)cc(OC(=O)c3c(C)cc(O)cc3O)cc2O)cc(O)c1C(=O)O [GYROPHORIC ACID] > 100 µM (inactive)

Quickly give me recorded GI50 for CN(CCc1ccc(N)cc1)[C@H]1CCCC[C@H]1N1CCCC1 > 100 µM (inactive)

For the molecule CCn1c(SCC(=O)NNC(=S)Nc2ccc([N+](=O)[O-])cc2)nc2ccccc2c1=O , give its reported GI50. 47.5 µM (inactive)

Identify measured GI50 corresponding to Oc1c(CN2CCN(c3ccccc3)CC2)cc(Br)c2cccnc12 29.6 µM (inactive)

Please report the measured GI50 for CCc1ccccc1-n1c2nc(=O)n(C)c(=O)c-2nc2ccccc21 2.77 µM (inactive)

Identify measured GI50 corresponding to O=[N+]([O-])C(C(Cl)=C(Cl)Cl)=C(N(Cc1ccccc1)Cc1ccccc1)N(Cc1ccccc1)Cc1ccccc1 57 µM (inactive)

Entry source: ChEMBL document CHEMBL1201862
